- Experimental target: Pig IR (pig, UniProt F1SCL0 28-1382)
- Method: cell-based or functional assay
Endpoint: Pig IR phosphorylation [EC 50 nM] mean (nM)
Could you give me the number in nM? Just the number is fine.

Kindly note the recorded Pig IR phosphorylation [EC 50 nM] mean for scl-Fc fusion protein INS012 (Fc fusion) FVNQHLCGSHLVEALHLVCGERGFHYTPKTEEYPGDVGIVEQCCTSICSLSQLEDYCGGEAEDLQVGQVELGGGPGAGSLQPEGSLQGGPSVFLFPPKPKDTLMISRTPEVTCVVVDVSHEDPEVKFNWYVDGVEVHNAKTKPREEQYNSTYRVVSVLTVLHQDWLNGKEYKCKVSNKALPAPIEKTISKAKGQPREPQVYTLPPSRDELTKNQVSLTCLVKGFYPSDIAVEWESNGQPENNYKTTPPVLDSDGSFFLYSKLTVDKSRWQQGNVFSCSVMHEALHNHYTQKSLSLSPGGGGGSAESKYGPPCPPCPA , which is 50.6
